- Test system: SegB (SegBSs) (Saccharolobus (Sulfolobus) solfataricus P2), ORF:2e81311c
- Sequence: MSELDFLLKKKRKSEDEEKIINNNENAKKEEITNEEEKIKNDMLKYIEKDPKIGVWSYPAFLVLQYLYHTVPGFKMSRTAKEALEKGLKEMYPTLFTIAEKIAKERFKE
- TEST SUMMARY: DNase I footprinting
- CONDITION INFO: EMSA and footprint: 10 mM Tris-HCl pH 7.5, 50 mM KCl, 1 mM DTT, 5 mM MgCl2, 2.5% glycerol, 0.05% NP-40, 1 ug poly(dI-dC), 37 C, 20 min, DNA 1-5 nM
READOUT LABEL: binding

1. GCTCGTAATTGAGGCCAAAATTCACAAAAATGATTACCTACAGACTCTAGAGTACTCTAAATATTTCAAGTACGGTATGGCAGTATTTCCATTTACTGGAGAGTGTAGAGTACCTAAAGGTTGGATTTGTATATTTAACACCACAAAGGATCAGTCTAGATTCTACTCTCTTCTTGAAGATTTATTATCTAGAGTTAAGT (double strand) [peak B-6 fragment] = binds
2. GAATGTCACAAGGTTCTTTTCCTATATACTTAAAACAAGAGAAAAGTAGAGAAATATTCTATTATACTCTCTTTTTCCTAAATTTTAATCTTAAACTTAAGGGAAGTAGAGTCTAGACTCACGTTAGGGTATGAAATTATCTCATCCTAATTTTTATTTGGCATAACGCTAATATGAAAAACATAAATAGTTAGAGTGTT (double strand) [peak D fragment] = binds
3. GCATCTATGGCATCTGAATTGGGTATATAACCATATTCTACTTCTATTCCCATATCTTCATCACTAACGTAGAGATCAAGTAGTTTTCCTTTCTTCTCATACTCCACGAATACTCTATAGCCTAGACTCTTGAAGTAAGCAGATAATATTAATTGTAGACTGGAGTGGTTAATATTTGTGAATCCTAATTCATAAAAATC (double strand) [peak B-5 fragment] = binds

These entries and their values trace back to paper PMC12284271.
